Conditions: 25 °C
readout.type: solubility (mM)

| structure.as.smiles | experimental.value |
| --- | --- |
| CC(=O)Nc1cccc(C)c1 | 8.11 |
| CC(=O)Nc1ccccc1Cl | 39.8 |

###

Below, each entry is listed alongside its reported logP.

| structure.as.smiles | logP |
| --- | --- |
| COc1ccc(NC(=O)N(C)C)cc1 | 0.83 |
| O=[N+]([O-])c1ccc(Br)c(Cl)c1 | 3.25 |
| COc1ccc(NC(N)=O)cc1Cl | 1.37 |
| CNC(=O)Nc1cccc(Cl)c1 | 2.18 |
| NC(=O)Nc1cccc(C(F)(F)F)c1 | 2.31 |
| CCCCOC(=O)Nc1ccccc1 | 3.3 |
| CON(C)C(=O)Nc1ccc(Br)cc1 | 2.38 |
| CNC(=O)Nc1ccc(C)c(Cl)c1 | 2.61 |
| COc1cccc(NC(=O)N(C)C)c1 | 1.73 |
| CCCOC(=O)Nc1ccccc1 | 2.8 |
| CNC(=O)Nc1ccc(Cl)c(Cl)c1 | 2.94 |
| O=C(Nc1ccccc1)NC1CCCC1 | 2.65 |
| Cc1cc(NC(N)=O)ccc1F | 1.59 |
